target: recombinant soluble homotrimeric HA of A/Indonesia/5/05 (H5N1) (Influenza A virus A/Indonesia/5/2005 (H5N1)); experiment: HA microarray, BCC supernatant; conditions: remark: other sources report otherwise
measuredMetric: Trimeric HA Binding RLU (RLU)
Reply numerically in RLU, unit not repeated.

Name the reported Trimeric HA Binding RLU value associated with the binder TCN-538 (3206_O17) (antibody, V domains shown) VH: QITLKESGPTLVKPTQTLTLTCVFSGFSLSITGVRVGWIRQPPGKALEWLALISWDDEKHYSPSLQSRLTITKDTSKNQVVLTMTNLDPVDTATYYCARSTDRGHVLRYFGWMLPGDAFDVWGQGTMVTVSS VL: DIVMTQSPDFLPVSLGERATINCKSSQRVLYSSNNKNYLAWYQLKPGQPPKLIIYWASTRESGVPDRFSGSGSGTEFTLTISSLQAEDVAVYYCQQYYSRPYTFGQGTKLEIK
26400
